Provenance of the data: patent US7247727B2

measurement-target: CDK1/Cyclin B (Homo sapiens, UniProt P06493)
Sequence (P06493 whole entry): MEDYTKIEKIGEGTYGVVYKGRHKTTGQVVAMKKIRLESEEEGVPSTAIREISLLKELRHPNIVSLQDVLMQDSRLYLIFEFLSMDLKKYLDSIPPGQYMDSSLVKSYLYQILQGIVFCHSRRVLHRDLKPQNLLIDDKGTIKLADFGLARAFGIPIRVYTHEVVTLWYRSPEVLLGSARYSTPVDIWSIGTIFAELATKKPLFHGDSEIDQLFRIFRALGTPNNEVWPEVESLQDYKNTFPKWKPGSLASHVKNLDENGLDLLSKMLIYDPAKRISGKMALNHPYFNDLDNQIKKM
Sequence (P14635 whole entry partner): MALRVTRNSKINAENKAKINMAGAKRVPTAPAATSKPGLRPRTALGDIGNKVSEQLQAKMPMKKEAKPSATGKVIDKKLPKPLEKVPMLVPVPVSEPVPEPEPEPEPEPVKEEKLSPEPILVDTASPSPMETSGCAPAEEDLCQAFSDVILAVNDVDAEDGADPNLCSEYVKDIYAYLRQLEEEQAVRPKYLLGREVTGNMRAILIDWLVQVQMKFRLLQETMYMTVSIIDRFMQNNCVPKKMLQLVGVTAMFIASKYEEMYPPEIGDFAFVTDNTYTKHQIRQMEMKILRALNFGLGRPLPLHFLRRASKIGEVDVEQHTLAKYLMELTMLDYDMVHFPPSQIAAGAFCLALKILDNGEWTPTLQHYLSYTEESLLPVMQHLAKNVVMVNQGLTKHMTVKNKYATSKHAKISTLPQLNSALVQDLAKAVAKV
assay-info: CDK1/Cyclin B kinase assay (FlashPlate or HTRF)
test-context: recombinant human CDK1/Cyclin B, Rb protein substrate; Ki=IC50/(1+[S]/Km)
pKi: −log10 of the molar value.
value-type: pKi

Let me know recorded pKi for NC1=NC(=O)/C(=C/c2c[nH]c3ncccc23)S1 , thanks.
6.08

[A] COc1ccccc1NC1=NC(=O)/C(=C/c2c[nH]c3ncccc23)S1
[B] Cc1ccsc1CNC1=NC(=O)/C(=C/c2c[nH]c3ncccc23)S1
[C] O=C1N=C(NC2C[C@@H]2c2ccccc2)S/C1=C\c1c[nH]c2ncccc12 (stereo partly shown)
Task field, ranking: reported pKi, descending order. Could you list the labels in the order requested?
C, B, A

###

measurement-target: CDK2/Cyclin E (Homo sapiens, UniProt P24941)
assay-info: CDK2/Cyclin E kinase assay (procedure as for CDK1/Cyclin B)
Type: biochemical
test-context: CDK2/Cyclin E complex, Rb protein substrate; Ki=IC50/(1+[S]/Km)
Protocol: For the FlashPlate kinase assay, 96-well FlashPlates were coated with Rb protein at 10 μg/ml, using 100 μl per well. Plates were incubated at 4° C. overnight or at room temperature for 3 hours on a shaker. To control for nonspecific phosphorylation, one row of wells was coated with 100 μl/well coating buffer (20 mM HEPES, 0.2 M NaCl). […] The Homogeneous Time Resolved Fluorescence (HTRF) kinase assay was carried out in 96-well polypropylene plates (BD Biosciences, Bedford, Mass.). […]
value-type: Ki (nM)

// worked examples, Ki included
Recall the reported Ki of Cc1ccsc1CNC1=NC(=O)/C(=C/c2c[nH]c3ncccc23)S1 when tested on CDK2/Cyclin E (Homo sapiens, UniProt P24941).
18

Recall the reported Ki of NC1=NC(=O)/C(=C/c2c[nH]c3ncccc23)S1 when tested on CDK2/Cyclin E (Homo sapiens, UniProt P24941).
252

[1] COc1ccccc1NC1=NC(=O)/C(=C/c2c[nH]c3ncccc23)S1
[2] O=C1N=C(NC2C[C@@H]2c2ccccc2)S/C1=C\c1c[nH]c2ncccc12 (stereo partly shown)
Form field 'greater Ki' accepts 1 or 2 ; which applies? Select an item and report its label.
1
(1: 187 nM, 2: 17 nM)

###

Property: melting point; scope: individual compounds

Let me know recorded melting point for O=C1N=C(N[C@@H](CO)c2ccccc2)S/C1=C\c1c[nH]c2ncccc12 , thanks.
317 to 319 °C

---
Let me know recorded melting point for CC(=O)OC[C@H](NC1=NC(=O)/C(=C/c2c[nH]c3ncccc23)S1)c1ccccc1 , thanks.
243.7 to 246.8 °C

Let me know recorded melting point for O=C1N=C(NCc2ccc(F)c(Cl)c2)S/C1=C\c1c[nH]c2ncccc12 , thanks.
318 to 320 °C

Let me know recorded melting point for O=C1N=C(NCc2cccs2)S/C1=C\c1c[nH]c2ncccc12 , thanks.
243 to 246 °C

Let me know recorded melting point for O=C1N=C(NC2C[C@@H]2c2ccccc2)S/C1=C\c1c[nH]c2ncccc12 (stereo partly drawn) , thanks.
308 to 310 °C

Let me know recorded melting point for CC(C)[C@H](CO)NC1=NC(=O)/C(=C/c2c[nH]c3ncccc23)S1 , thanks.
269 to 271 °C
